I'd be grateful if you could share measured growth inhibition for these entries.
- protocol summary: NCI Yeast Anticancer Drug Screen. Data for the sgs1 mgt1 strain (AID 161);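 also: 0% = growth of cultures given vehicle only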
- experimental setup: S. cerevisiae sgs1 mgt1 strain, active compounds read high; at 50.0 µM unless noted
About 79,000 compounds went through this panel and 15% of them were active in at least one assay; those are over-represented in the sample as a whole.
Answers are plain numbers, in %.

Example entries begin here.
molecule	growth inhibition (%)
CSc1ccc(NC(=O)Nc2cc(C)ccc2N=Nc2ccc(C)cc2)cc1	-4.95
[N-]=[N+]=Nc1c2c(nc3ccccc13)CCCC2	-21.4
NNC(=O)CC(=O)NN	-11.4
Cc1nnc2sc(N/N=C/c3ccccc3)nn12	-69.2
Cn1c(=O)c2nc(SCC(=O)O)n(C)c2n(C)c1=O	7.4

Below is a list of molecules. For each, state its recorded growth inhibition.
1. Cc1ccc(C)n1-c1ccccc1
2. O=C(c1ccccc1)N1CCC(Nc2nccs2)O1 (configuration not stated)
3. O=CC(O)C(O)C(O)C(O)C(O)C(O)CO (configuration not stated)
4. CC1CC(C)OC(C(Br)CBr)O1 (configuration not stated)
5. C[n+]1cn(-c2nc3ccccc3nc2[N-]S(=O)(=O)c2ccccc2)c2ccccc21
6. Nc1nnc2nc(C(C(=O)c3ccc(F)cc3)c3nc4nnc(N)n4[nH]c3=O)c(=O)[nH]n12
7. COc1ccc2[nH]c3c(C)c4c(c(C)c3c2c1)CN(C)C=C4

// result
1. -7.75
2. -11.4
3. 28.1
4. -4.8
5. -13.2
6. -10.2
7. 62.7

====

- protocol summary: NCI Yeast Anticancer Drug Screen. Data for the mec2-1 strain (AID 157)
- experimental setup: S. cerevisiae mec2-1 strain, active compounds read high; at 50.0 µM unless noted
This is part of a sample that, as a whole, favours compounds with a hit. Of some 79,000 tested, about 15% had one in any assay.
I'd be grateful if you could share measured growth inhibition for these entries.
Numbers only, in %.

Example entries begin here.
molecule	endpoint value
COc1ccc(OC)c(NC(=O)C(=O)C(C(C)=O)c2nc3ccc(Cl)cc3[nH]c2=O)c1 (stereo unspecified)	7.75
CC(CC(=O)c1cccc2ccccc12)C(=O)O (stereo unspecified)	3.3
O=C1c2ccccc2C(=O)c2cc3nc4c5ccccc5c5ccccc5c4nc3cc21	-21.2
Cc1[nH]n(-c2ccc(Cl)cc2)c(=O)c1N=Nc1cccc(C(F)(F)F)c1	2.05
CC(C)N1CCN(c2ccncc2S(=O)(=O)N2CCCC2)CC1	4.8
CCOC(=O)C1(C#N)C(C#N)(C#N)C1(CC)CC (stereo unspecified)	19.6
CSc1ccc2c(c1)N(CCCN(C)C)c1ccccc1S2	-4.15
Nc1nc2ncc(COc3ccc(C(=O)O)cc3)nc2c(=O)[nH]1	3.2
COc1cc(C2c3cc4c(c(OC5OC(CO)C(O)C5O)c3CC3COC(=O)C32)OCO4)cc(OC)c1OC (stereo unspecified)	6.65
CCOC(=O)C1Oc2ccc([N+](=O)[O-])cc2C1(C)O (stereo unspecified)	0.75

Below is a list of molecules. For each, state its recorded growth inhibition.
1. C(/C=N/NC1=NCCN1)=N\NC1=NCCN1
2. COC(=O)C1(CC(=O)c2c(C)[nH]c3ccccc23)NC(=S)NC(=O)C1C#N (stereo unspecified)

// result
18.1
14.7

Below is a list of molecules. For each, state its recorded growth inhibition.
1. Clc1nc(-c2ccccc2)ns1
2. O/C(=C/c1ncnc2ccccc12)c1cccc(Cl)c1
3. CCCCCCCCCc1cc(=O)c2c(O)cccc2o1

// result
[-9.3, 4.4, -30.6]

Below is a list of molecules. For each, state its recorded growth inhibition.
1. O=C1CSC(c2ccc(F)cc2F)N1c1nncs1 (stereo unspecified)
2. CCN(CC)c1cc(C)c2cc(Cc3ccccc3)ccc2n1
3. C/C=C/C(=O)Oc1ccc[nH]c1=O
4. Cc1c2c(c(C)c3c1C(=O)c1cc4c(cc1C3=O)OCO4)OC(C)(C)O2
5. O=C(C(/C=N/C(=S)NC1C(=O)Nc2ccccc21)=C(/O)c1ccccc1)c1ccccc1 (stereo unspecified)

// result
-3.7
32.8
13.1
0.35
-0.85

Below is a list of molecules. For each, state its recorded growth inhibition.
1. C[N+](C)(C)CC1CCC/C1=N\OC(=O)c1ccccc1 (stereo unspecified)
2. COc1ccc2c(c1)[n+](=O)c(C(=O)CC(=O)C(=O)Nc1cccc(C)c1C)c(C)n2[O-]

// result
1.85
13.3

Below is a list of molecules. For each, state its recorded growth inhibition.
1. CCCC1N[C@H](C(=O)O)CS1 (stereo partly specified)
2. C=C1CC(CCCC2CC(=C)C(=O)O2)OC1=O (stereo unspecified)

// result
7.1
12.9

Below is a list of molecules. For each, state its recorded growth inhibition.
1. CCOC(=O)Nc1nc2ccccc2n1CN1CCCC1
2. COc1ccc(/C=C2\CNC/C(=C\c3ccc(OC)cc3)C2=O)cc1

// result
[-17.9, 1.75]

Below is a list of molecules. For each, state its recorded growth inhibition.
1. N=c1oc2ccc(Cl)cc2cc1C(=O)Nc1ccccc1
2. CC1=NN(C(=O)Cc2ccccc2)C(=O)/C1=C\c1ccc(O)cc1
3. CCCN=C(N)C(C)=O

// result
1: 32.7; 2: -36.1; 3: -4.9

Below is a list of molecules. For each, state its recorded growth inhibition.
1. CCOC(=O)[C@]12C3C=CC(C3)C1C(=O)C1OC12 (stereo partly specified)
2. Oc1cc(O)c2cc(O)c(-c3ccc(O)c(O)c3)[o+]c2c1
3. Fc1cccc2c(SCc3ccc(Cl)cc3Cl)cnnc12
4. O=C1CSC(c2cc([N+](=O)[O-])ccc2Cl)N1c1nncs1 (stereo unspecified)

// result
1: -26.8; 2: 2.2; 3: -1.25; 4: 15.6
